Value source: paper PMC11574021

Biological target: T1, phosphorylated Aurora-A CAKD (Homo sapiens, UniProt O14965, C290A/C393A)
T1 construct: 10 nM Aurora-A 122–403 C290A C393A phosphorylated protein; His (N, cleaved yes); made in house; host or cells: E. coli B834 (no lambda phosphatase)
T1 sequence (O14965 122-403 C290A/C393A): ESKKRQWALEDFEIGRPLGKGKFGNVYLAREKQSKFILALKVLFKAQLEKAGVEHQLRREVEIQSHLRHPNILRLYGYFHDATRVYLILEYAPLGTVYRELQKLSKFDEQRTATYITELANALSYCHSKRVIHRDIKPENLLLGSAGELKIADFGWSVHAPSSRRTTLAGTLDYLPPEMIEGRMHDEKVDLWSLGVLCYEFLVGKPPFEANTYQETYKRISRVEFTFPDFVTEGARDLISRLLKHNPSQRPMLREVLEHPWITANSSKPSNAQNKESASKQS
Test: Fluorescence anisotropy competition with FAM-CEP192 501-533, phosphorylated Aurora-A
Format: binding
Details: competition with 100 nM FAM-CEP192 501-533, 10 μM phosphorylated Aurora-A CAKD, n = 3
Procedure: Assays were performed in 25 mM HEPES pH 7.5, 150 mM NaCl, 2 mM DTT, 5 mM MgCl2, 0.01% Tween 20. […] Plates were left incubating for 1 h at room temperature before the fluorescence anisotropy was measured using a HIDEX plate reader, with excitation at 485 nm and emission at 535 nm. […] Fluorescence anisotropy data were processed using Microsoft Excel to calculate intensity and anisotropy using the equation listed in (Yeo et al, [2013]). […]
Test Readout: pIC50
Lab note: report pIC50 as minus log10 of the concentration in molar units, number only.

CEP192 468-533 Y487A/F490A: CEP192 468-533 mutant, two F-pocket residues replaced with alanine (protein, left off: His6, N-terminal, cleaved | SUMO, N-terminal, cleaved, CEP192 468-533 mutant, two F-pocket residues replaced with alanine) PQSVVYQNEEGRWVTDLAYATSANSKQNLNVSLSDEMNEDFRSGSEAFDLIAQDEEEFNKEHQFIQ = 5.27

--- query ---
# molecule CEP192 468-533: recombinant human CEP192 aa 468–533, minimal binding region (protein, left off: His6, N-terminal, cleaved | SUMO, N-terminal, cleaved) PQSVVYQNEEGRWVTDLAYYTSFNSKQNLNVSLSDEMNEDFRSGSEAFDLIAQDEEEFNKEHQFIQ ; its pIC50 = 6.20
